Assign MIC to each entry below.
# Test system: Staphylococcus aureus
# experimental.details: Antibacterial activity against vancomycin-resistant Staphylococcus aureus HIP11714 assessed as inhibition of bacterial growth incubated for 20 hrs by broth microdilution method
# Format: functional
# run.conditions: HIP11714, 20 h
Please reply with the bare figure in µM and do not write the unit itself.

Exercise: Can you look up the measured MIC of CCCCCCSSc1ccccn1 for me?
Key: 50

Exercise: Can you look up the measured MIC of CCCCCCCCSSc1ccccn1 for me?
Key: 6.25

Exercise: Can you look up the measured MIC of CCCCCCCCCSSc1ccccn1 for me?
Key: 12.5

Exercise: Can you look up the measured MIC of CCCCCCCSSc1ccccn1 for me?
Key: 6.25

Values compiled from ChEMBL document CHEMBL4715813.
